All values here come from patent US10202339B2.

Tested System: IDH2 R140Q (Homo sapiens (Human), UniProt P48735, R140Q)
Sequence (P48735 40-452 R140Q): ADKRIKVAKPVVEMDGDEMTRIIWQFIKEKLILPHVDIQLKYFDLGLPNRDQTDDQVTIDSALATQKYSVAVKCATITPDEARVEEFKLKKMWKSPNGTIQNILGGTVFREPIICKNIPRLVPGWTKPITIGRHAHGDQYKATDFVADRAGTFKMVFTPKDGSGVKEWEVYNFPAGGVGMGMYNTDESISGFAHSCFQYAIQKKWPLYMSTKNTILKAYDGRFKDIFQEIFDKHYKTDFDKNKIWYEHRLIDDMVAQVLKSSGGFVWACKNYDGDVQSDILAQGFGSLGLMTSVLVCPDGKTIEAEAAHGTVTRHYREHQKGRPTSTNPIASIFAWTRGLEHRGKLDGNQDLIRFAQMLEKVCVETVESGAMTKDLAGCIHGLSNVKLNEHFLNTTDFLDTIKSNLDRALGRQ
Test Protocol: IDH2 R140Q enzymatic cofactor depletion assay (diaphorase/resazurin)
Particulars: IDH2 R140Q enzyme, one hour preincubation with compound, one hour reaction; read-out: Enz R140Q
pIC50: −log10 of the molar value.
Answer each item with its documented pIC50.

Reference set, count: 3
CCCNS(=O)(=O)c1ccc(-c2ccsc2)c(NC(=O)Nc2cccc(C(F)(F)F)c2)c1    6.00 to 7.00
O=C(Nc1cccc(C(F)(F)F)c1)Nc1cc(S(=O)(=O)NC2CC2)ccc1N1CCCOCC1    6.00 to 7.00
Cc1cc(NC(=O)Nc2cc(S(=O)(=O)NCC(F)(F)F)ccc2-c2ccccc2)n(C)n1    5.00 to 6.00

Please examine the following record next.
## Task Dear colleague, I am looking for the recorded pIC50 of the following compound: O=C(Nc1cccc(C(F)(F)F)c1)Nc1cc(S(=O)(=O)NCCO)ccc1-c1ccsc1
## Result 6.00 to 7.00

###

Answer each item with its documented IC50.
Tested System: IDH2 R140Q (Homo sapiens (Human), UniProt P48735, R140Q)
Test Protocol: IDH2 R140Q enzymatic cofactor depletion assay (diaphorase/resazurin)
Particulars: IDH2 R140Q enzyme, one hour preincubation with compound, one hour reaction; read-out: Enz R140Q

Provide IC50 values for the following items, in order.
1. O=C(Nc1ncco1)Nc1cc(S(=O)(=O)Nc2ccccc2)ccc1-c1ccsc1 [Compound 23]
2. O=C(Nc1cccc(C(F)(F)F)c1)Nc1cc(S(=O)(=O)NCC2CCCC2)ccc1-c1ccsc1 [Compound 129]
3. O=C(Nc1ccccc1Cl)Nc1cc(S(=O)(=O)NC2CC2)ccc1-c1ccsc1 [Compound 25]
4. O=C(Nc1ccccc1F)Nc1cc(S(=O)(=O)Nc2ccccc2)ccc1-c1ccsc1 [Compound 9]

## Result
["1 to 10 µM", "0.1 to 1 µM", "0.1 to 1 µM", "0.1 to 1 µM"]

###

Tested System: IDH2 R140Q (Homo sapiens (Human), UniProt P48735, R140Q)
Test Protocol: IDH2 R140Q enzymatic cofactor depletion assay (diaphorase/resazurin)
Particulars: IDH2 R140Q enzyme, one hour preincubation with compound, one hour reaction; read-out: Enz R140Q
pIC50: −log10 of the molar value.
Measured Quantity: pIC50

Would you please look over these solved cases?
CC(C)Oc1ccc(S(=O)(=O)NCC(F)(F)F)cc1NC(=O)Nc1cccc(C(F)(F)F)c1    6.00 to 7.00
O=C(Nc1ccc(F)cc1)Nc1cc(S(=O)(=O)NCC(F)(F)F)ccc1-c1ccccc1    6.00 to 7.00
O=C(Nc1cccc(C(F)(F)F)c1)Nc1cc(S(=O)(=O)NC2CC2)ccc1-c1ccccc1    6.00 to 7.00
O=C(Nc1cccc(C(F)(F)F)c1)Nc1cc(S(=O)(=O)NCC(F)(F)F)ccc1C1=CCOCC1    5.00 to 6.00
O=C(Nc1cc(C(F)(F)F)ccn1)Nc1cc(S(=O)(=O)NCC(F)(F)F)ccc1C1CCCO1 (stereo not shown)    5.00 to 6.00
O=C(Nc1cc(S(=O)(=O)NCC(F)(F)F)ccc1-c1ccccc1)Nc1ccc(F)cc1C(F)(F)F    6.00 to 7.00
O=C(Nc1cccc(C(F)(F)F)c1)Nc1cc(S(=O)(=O)NCC2CC2)ccc1-c1ccsc1    6.00 to 7.00
CC(C)(C)NS(=O)(=O)c1ccc(-c2ccsc2)c(NC(=O)Nc2cccc(C(F)(F)F)c2)c1    6.00 to 7.00

// batch mode: one pIC50 value per listed entry
1. O=C(Nc1cccc(C(F)(F)F)c1)Nc1cc(S(=O)(=O)NCC(F)(F)F)ccc1C1CCCO1 (stereo not shown)
2. O=C(Nc1cccc(Cl)c1)Nc1cc(S(=O)(=O)NCC(F)(F)F)ccc1-c1ccccc1
3. O=C(Nc1cc(S(=O)(=O)NCC(F)(F)F)ccc1-c1ccccc1)n1ccc2ccccc21

## Result
1. 6.00 to 7.00
2. 6.00 to 7.00
3. 6.00 to 7.00

Hey, can you go through the list below and give me pIC50 for every item?
1. CCc1ccc(S(=O)(=O)NCC(F)(F)F)cc1NC(=O)Nc1cccc(C(F)(F)F)c1
2. O=C(Nc1cc(S(=O)(=O)NCC(F)(F)F)ccc1-c1ccccc1)Nc1c(F)cccc1F
3. O=C(Nc1cccc(C(F)(F)F)c1)Nc1cc(S(=O)(=O)NCC(F)(F)F)ccc1C1CCCCO1 (stereo not shown)
4. Cc1ccc(-c2ccc(S(=O)(=O)Nc3ccccc3)cc2NC(=O)Nc2cccc(C(F)(F)F)c2)cc1
5. O=C(Nc1cc(S(=O)(=O)NCC(F)(F)F)ccc1-c1ccccc1)Nc1ncccc1C(F)(F)F

## Result
6.00 to 7.00
6.00 to 7.00
6.00 to 7.00
5.00 to 6.00
5.00 to 6.00
